Data origin: PubChem BioAssay AID1625

- TEST SUMMARY: up-regulation of insulin promoter-GFP reporter – imaging, high-content screening, mouse beta cells (AID 1625)
- CONDITION PARAMETERS: MIN6 insulin promoter-GFP reporter, at 5 µM
In all, about 190,000 compounds went through this assay and about 570 (0.3%) were called active.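 Rule for the calls: active = z-score above 3 at 5 µM with at least 500 cells counted in the well; inconclusive = wells under 500 cells, flagged as cytotoxic or low count; inactive = the rest.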 This excerpt belongs to a sample that is enriched for actives.
Just give me one of these, please: y (active), n (inactive)

The following compounds have reported results that may help.
Query: Test call for this compound, please: "Cc1cc(C)nc(N2CCC(C(=O)Nc3ccc4c(c3)OCCO4)CC2)n1"
Response: y

Query: Test call for this compound, please: "O=C1N(c2ccccc2)C(=Nc2ccccc2)SC12CC2"
Response: n

Query: Test call for this compound, please: CCOc1ccc(NC(=S)N2CCC(N(C)CC3CCCO3)CC2)cc1 (stereo unspecified)
Response: y

Query: Test call for this compound, please: "CCc1nnc(NC(=O)CCC(=O)O)s1"
Response: n

Query: Test call for this compound, please: "CC(C)CNC(=O)C(=O)NCc1ccccc1"
Response: n

***
Query: Test call for this compound, please: "CCOc1ccc(NC(=S)N2CCCCCC2)cc1"
Response: n
